System: XF498
Experiment: NCI tumour cell line growth inhibition, 48 h
Activity calls are given as the source filed them. Rule as the data show it: active = GI50 up to about 1.1 µM and inactive = higher.
Return exactly one item of active, inactive

Record excerpt, results attached:
compound: CCCCNC(=O)NNC(=O)c1cc(/C=C/c2cccc([N+](=O)[O-])c2)ncn1
target-or-test-system: XF498
category-label: inactive

compound: CC(C)CCC[C@@H](C)C1CCC2[C@@H]3CC=C4C[C@@H](C(=O)NCCN(C)C)CC[C@]4(C)C3CC[C@@]21C (stereo not given in full)
target-or-test-system: XF498
category-label: inactive

compound: COc1cc(C2c3cc4c(cc3[C@@H](N(C)c3ccc(N(C)C)cc3)C3COC(=O)C23)OCO4)cc(OC)c1O (stereo not given in full)
target-or-test-system: XF498
category-label: active

compound: c1ccc2c3c(ccc2c1)-c1[nH]ncc1CCO3
target-or-test-system: XF498
category-label: inactive

Switching to the query record.
-- ask Would you mind telling me which call this test gave Cc1cc2nc3c(C(OC4OC(CO)C(O)C(O)C4O)C(O)CO)nn(-c4ccccc4)c3nc2cc1C (stereo not given) ?
-- reply inactive

---

# GI50 annotations
System: HOP-92
Assay: NCI tumour cell line growth inhibition, 48 h
Activity calls are given as the source filed them. No stated cut-off is given here; in the data, active = GI50 up to about 1.1 µM and inactive = higher.

compound: CN1CCN(C(=S)N(C)C(=O)c2ccc(Cl)cc2)CC1
GI50: > 100 µM (inactive)
//
compound: Cc1ccc([N+](=O)[O-])c2c(NCCNC(=O)c3cc(C(=O)NCCNc4ccnc5c(C)ccc([N+](=O)[O-])c45)n(C)n3)ccnc12
GI50: > 100 µM (inactive)
//
compound: O=C(Cc1nc2ccc(C(=O)c3ccccc3)cc2nc1O)C(=O)Nc1nc2ccccc2[nH]1
GI50: 23 µM (inactive)

Notebook: `COc1cc2c(cc1C[N+](C)(C)CSc1ccccc1)-c1ccccc1CC2` , GI50 read as 8.51 µM (inactive)

Notebook: CCCCN(CC)C(=O)C(=O)C1C(=O)Nc2ccccc2[S+]1[O-] (configuration not stated) , GI50 read as > 100 µM (inactive)

---

Tested on: A498
Test: NCI tumour cell line growth inhibition, 48 h
The source made the active and inactive calls. Cut-off read from the data, not from the text of the source: active = GI50 up to about 1.1 µM and inactive = higher.
Return exactly one item of label 1 (active), label 0 (inactive)

molecule: CCOC(=O)c1c(-c2ccccc2)nc2ccccc2c1O
category-label: label 0

molecule: COc1ccc(/C=C2\N=C(SC)N(CN3CCCCC3)C2=O)cc1
category-label: label 0

molecule: c1ccc2c3c(ccc2c1)-c1[nH]ncc1CCO3
category-label: label 0

molecule: C=CCOc1cc2c(cc1C(C)c1ccc(OC)cc1)OCO2 (stereo unspecified)
category-label: label 0

molecule: CCCN(CCC)c1cc2c(cc1F)c(=O)c(C(=O)O)cn2-c1ccc(N2CCN(C)CC2)cn1
category-label: label 0

molecule: COc1ccc2c(c1OC)C(=O)O[C@@H]2[C@H]1c2c(cc3c(c2OC)OCO3)CCN1C
category-label: label 0

molecule: Cc1c2ccccc2c(C2C3C(=O)N(c4cccc5ccccc45)C(=O)C3ON2Cc2ccc(CC(N)=O)cc2)c2ccccc12 (stereo unspecified)
category-label: label 0

molecule: CSc1nc2c(c(N3CCOCC3)n1)C(O)n1c(nc3ccccc31)S2 (stereo unspecified)
category-label: label 0

-- ask Would you mind telling me which call this test gave `Cc1cccc(-n2c(C)nc3ccc(NC(=S)Nc4ccccc4)cc3c2=O)c1` ?
-- reply label 0

-- ask Would you mind telling me which call this test gave `COc1cccc2c(Nc3ccc(S(=O)(=O)Nc4ncccn4)cc3)c3ccc([N+](=O)[O-])cc3nc12` ?
-- reply label 0

-- ask Would you mind telling me which call this test gave `c1ccc2c(c1)N=c1ccccc1=P21c2ccccc2Nc2ccccc21` ?
-- reply label 1

-- ask Would you mind telling me which call this test gave `COc1cc(Br)c(CC2=NCCc3cc(OC)c(OC)cc32)cc1OC` ?
-- reply label 0

-- ask Would you mind telling me which call this test gave `O=[N+]([O-])c1ccc(C[P+]2(c3ccccc3)CCCCC2)cc1.[O-][Cl+3]([O-])([O-])[O-]` ?
-- reply label 0

---

System: RXF 393
Assay: NCI tumour cell line growth inhibition, 48 h
The source made the active and inactive calls. No stated cut-off is given here; in the data, active = GI50 up to about 1.1 µM and inactive = higher. Where a SMILES comes first, the peptide text is derived from it. [ ]: non-standard residue; d: D form. The star is where a group is joined. ξ: configuration not given here. ξD = NC(CC(=O)O)C(=O)O; Boc = CC(C)(C)OC(=O)*; Aib = CC(C)(N)C(=O)O; OtBu = CC(C)(C)O*
Return exactly one item of YES (active), NO (inactive)

-- ask Would you mind telling me which call this test gave `O=C(Nc1nc2ccccc2n1Cc1ccc(Cl)cc1)NC12CC3CC(CC(C3)C1)C2` ?
-- reply NO

-- ask Would you mind telling me which call this test gave C[Si](C)(C)OC1(C#N)C2C3CC4C2C(=O)C2C4C3C21 (stereo not given) ?
-- reply NO

-- ask Would you mind telling me which call this test gave `Cc1cc(O)nc(CNC(=O)Cc2ccccc2)n1` ?
-- reply NO

-- ask Would you mind telling me which call this test gave COc1cc(S(=O)(=O)Nc2ccc(-c3csc(N4C(=O)C(C)SC4c4cccs4)n3)cc2)ccc1Cl (stereo not given) ?
-- reply NO

-- ask Would you mind telling me which call this test gave COC(=O)C(C)(C)NC(=O)C(C)(C)NC(=O)C(CC(=O)OC(C)(C)C)NC(=O)OC(C)(C)C (stereo not given) (Boc-[ξD](OtBu)-[Aib]-[Aib]-OMe) ?
-- reply NO

-- ask Would you mind telling me which call this test gave Nc1nc2cc(CNc3ccc(C(=O)NC(CCC(=O)O)C(=O)O)cc3)ccc2nc1-c1ccccc1 (stereo not given) ?
-- reply NO

-- ask Would you mind telling me which call this test gave C/C1=C/C(C)CC(C)OC(=O)C(C)NC(=O)C(Cc2ccc(O)c(I)c2)N(C)C(=O)C(C)NC(=O)C(C)C1 (stereo not given) ?
-- reply YES

-- ask Would you mind telling me which call this test gave `COc1cc(O)c2c(=O)c(OC)c(-c3ccc4c(c3)OCO4)oc2c1OC` ?
-- reply NO

-- ask Would you mind telling me which call this test gave `C(=C\c1ccc(-c2cn3cc(/C=C/C=N/NC4=NCCN4)ccc3n2)cc1)/C=N/NC1=NCCN1` ?
-- reply NO

-- ask Would you mind telling me which call this test gave `N/N=C(/C=C1\C(=O)Nc2ccccc21)c1ccccc1` ?
-- reply NO

-- ask Would you mind telling me which call this test gave CC1CC[C@@]2(OC1)O[C@H]1C[C@H]3[C@@H]4CC[C@H]5C[C@@H](OC6OC(CO)C(OC7OC(CO)C(OC8OC(CO)C(O)C(OC9OC(C)C(OC%10OC(C)C(O)C(O)C%10O)C(O)C9O)C8OC8OCC(O)C(O)C8O)C(O)C7O)C(O)C6O)CC[C@]5(C)[C@H]4CC(=O)[C@]3(C)[C@H]1[C@@H]2C (stereo not given in full) ?
-- reply NO

-- ask Would you mind telling me which call this test gave `NS(=O)(=O)c1nnc(NS(=O)(=O)c2ccc([N+](=O)[O-])cc2)s1` ?
-- reply NO

-- ask Would you mind telling me which call this test gave `CCN(c1ccccc1)[C@H]1C(=O)N(c2ccc([N+](=O)[O-])cc2)[C@H]1c1ccc(OC)cc1` ?
-- reply NO

-- ask Would you mind telling me which call this test gave `CCc1c(O)c2c(c(O)c1C(C)=O)C(=O)c1c(cc(O)c(C(=O)O)c1C(=O)O)C2=O` ?
-- reply NO

-- ask Would you mind telling me which call this test gave `CC(C)(C)C1=CC(=C2C=Cc3cc(O)ccc3O2)C=C(C(C)(C)C)C1=O` ?
-- reply NO

---

System: PC-3
Experiment: NCI tumour cell line growth inhibition, 48 h
Calls of active or inactive are those of the source. No stated cut-off is given here; in the data, active = GI50 up to about 1.1 µM and inactive = higher.
Return exactly one item of Y for active, N for inactive

compound: Oc1nc(S)nc2c1CN(CCCN1CCOCC1)CN2
category-label: N

compound: NC(Cc1ccc(OCc2ccccc2)cn1)C(=O)OCc1ccccc1 (stereo not given)
category-label: N

-- ask Would you mind telling me which call this test gave `COc1cc(/C=C\c2nnc(/C=C\c3ccc(O)c(OC)c3)s2)ccc1O` ?
-- reply N

-- ask Would you mind telling me which call this test gave `COc1ccc2cc(C(=O)O)ccc2c1OC` ?
-- reply N

-- ask Would you mind telling me which call this test gave `COc1cccc2c(Nc3ccc(S(=O)(=O)Nc4ncccn4)cc3)c3ccc([N+](=O)[O-])cc3nc12` ?
-- reply N

-- ask Would you mind telling me which call this test gave NC(CCC(=O)NC(CSCC1C(=O)Nc2ccccc21)C(=O)NCC(=O)O)C(=O)O (stereo not given) ?
-- reply N

---

# GI50 annotations
Tested on: TK-10
Assay: NCI tumour cell line growth inhibition, 48 h
The source made the active and inactive calls. No stated cut-off is given here; in the data, active = GI50 up to about 1.1 µM and inactive = higher.

See these solved cases before continuing.
compound: CC(=O)OC1CC2C(C)(C)C(=O)C=C[C@]2(C)C2CCC3(C)C(c4ccoc4)C(=O)[C@H]4O[C@]43[C@]12C (stereo not given in full)
GI50: 31.6 µM (inactive)
--
compound: COc1ccc(OC)c([N+](=O)[O-])c1-c1nc2sc(Cl)cn2c1/C=N/N=C(N)N
GI50: 25.2 µM (inactive)
--
compound: CCCCNC(=O)NNC(=O)c1cc(/C=C/c2cccc([N+](=O)[O-])c2)ncn1
GI50: > 100 µM (inactive)
--
compound: COc1cc(/C=C/C(=O)c2ccc(O)c(OC)c2)ccc1O
GI50: 46.8 µM (inactive)
--
compound: Cn1c(=O)nc2n(-c3ccc(Cl)cc3)c3ccc(Cl)cc3nc-2c1=O
GI50: 18.2 µM (inactive)
--
compound: CC(CO)C1C[C@H](O)[C@@]2(C)CC(=O)C=C(CO)[C@@H]2C1 (stereo not given in full)
GI50: > 100 µM (inactive)
--
compound: Cc1cnc(Cl)nc1C(C#N)c1nc2ccccc2s1 (stereo not given)
GI50: 24.8 µM (inactive)
--
compound: Cc1cc2c3c(coc3c1-c1c(C)cc3c4c(coc14)C(=O)C(O)=C3C(C)C)C(=O)C(O)=C2C(C)C
GI50: 14.5 µM (inactive)
--
compound: CC1(C)OC(CP(c2ccccc2)c2ccccc2)C(CP(c2ccccc2)c2ccccc2)O1 (stereo not given)
GI50: > 19.8 µM (inactive)

Please turn your attention to the following entry.
Notebook: CCOC(=O)C(Cc1ccc(N=NN(C)C)cc1)NC(=O)CC1c2ccccc2-c2ccccc21 (stereo not given) , GI50 read as > 100 µM (inactive)
